assay: Acute toxicity in mice (LD50, Litchfield and Wilcoxon); conditions: mouse, in vivo, sc, male NRMI mice, subcutaneous, read-out: Acute Toxicity LD50, S.C.
Each entry below lists one item and its recorded LD50 at 24 h value.
Only the number, expressed in mg/kg, is required.

In the examples that follow, each entry is paired with its recorded LD50 at 24 h.
compound	assay result
CCN(CC)CCN=S(=O)(c1ccsc1)c1ccsc1	30
CCN(CC)CCN=S(=O)(c1ccccc1)c1cccs1 (stereo not shown)	150
CCN(CC)CCN=S(=O)(c1ccsc1)c1cccs1 (stereo not shown)	250

Consider the additional compound presented here.
Fill in reported LD50 at 24 h for this entry: C[N+](C)(C)CCCN=S(=O)(c1ccccc1)c1cccs1 (stereo not shown) 300

====

test: Acute toxicity in mice (LD50, Litchfield and Wilcoxon); settings: mouse, in vivo, po, male NRMI mice, w.i.g. (gastric tube), read-out: Acute Toxicity LD50, w.i.g.
Kindly apply the following: MET if LD50 at 24 h is less than 200 mg/kg, NOT MET in every other case.

Solved cases (5 shown):
compound	class label
CCN(CC)CCN=S(=O)(c1ccccc1)c1cccnc1 (stereo not shown) [Example 12]	NOT MET
CCN(CC)CCN=S(=O)(c1ccccc1)c1ccccc1 [Sulfoxifen-Phosphate, reference compound]	MET
CCN(CC)CCN=S(=O)(c1cccs1)c1cccs1 [Example 5]	NOT MET
C[N+](C)(C)CCCN=S(=O)(c1ccccc1)c1cccs1 (stereo not shown) [Example 2]	NOT MET
O=S(=NCCN1CCOCC1)(c1cccs1)c1cccs1 [Example 7]	NOT MET

Say whether its LD50 at 24 h is strictly beneath 200 mg/kg. Entry: O=S(=NCCN1CCCC1)(c1ccccc1)c1cccs1 (stereo not shown) [Example 3] MET

Report whether reported LD50 at 24 h is lower than 200 mg/kg (strictly) for CCN(CC)CCN=S(=O)(c1ccccc1)c1ccco1 (stereo not shown) [Example 10] NOT MET

====

assay: Acute toxicity in mice (LD50, Litchfield and Wilcoxon); conditions: mouse, in vivo, po, male NRMI mice, w.i.g. (gastric tube), read-out: Acute Toxicity LD50, w.i.g.
endpoint name: LD50 at 24 h (mg/kg)
Response body: numeric value in mg/kg, unit text excluded.

molecule	assay result
O=S(=NCCN1CCCCC1)(c1cccs1)c1cccs1	200

Consider now this further molecule.
For the molecule CCN(CC)CCN=S(=O)(c1ccccc1)c1cccs1 (stereo not drawn) , report LD50 at 24 h. 200

====

List of ED100 values.
test system: histamine-spasm (bronchospasm); experiment: Bronchospasmolytic activity (Konzett and Roessler), histamine-spasm; type: in vivo, guinea pigs; settings: Cavia porcellus, iv, 2 min; guinea pig, i.v., 2 min before histamine

molecule	target entity	endpoint name	assay result
CCN(CC)CCN=S(=O)(c1ccccc1)c1ccsc1 (stereo not drawn) [Example 4]	histamine-spasm (bronchospasm)	ED100	> 8 mg/kg
CCN(CC)CCN=S(=O)(c1ccsc1)c1ccsc1 [Example 9]	histamine-spasm (bronchospasm)	ED100	> 8 mg/kg
CCN(CC)CCN=S(=O)(c1ccsc1)c1cccs1 (stereo not drawn) [Example 8]	histamine-spasm (bronchospasm)	ED100	4 mg/kg
CCN(CC)CCN=S(=O)(c1ccccc1)c1cccs1 (stereo not drawn) [Example 1]	histamine-spasm (bronchospasm)	ED100	> 4 mg/kg

Tell me measured ED100 for CCN(CC)CCN=S(=O)(c1ccccc1)c1ccccc1 [Sulfoxifen-Phosphate, reference compound] please. 4 mg/kg

Look up ED100 of CCN(CC)CCN=S(=O)(c1cccs1)c1cccs1 [Example 5] and report it. > 8 mg/kg
